System: T1, recombinant mouse WISP1/His (mouse, UniProt O54775 23-367)
T1 construct: also called murine WISP1; mWISP1; not shown: His tag
T1 sequence (looked up): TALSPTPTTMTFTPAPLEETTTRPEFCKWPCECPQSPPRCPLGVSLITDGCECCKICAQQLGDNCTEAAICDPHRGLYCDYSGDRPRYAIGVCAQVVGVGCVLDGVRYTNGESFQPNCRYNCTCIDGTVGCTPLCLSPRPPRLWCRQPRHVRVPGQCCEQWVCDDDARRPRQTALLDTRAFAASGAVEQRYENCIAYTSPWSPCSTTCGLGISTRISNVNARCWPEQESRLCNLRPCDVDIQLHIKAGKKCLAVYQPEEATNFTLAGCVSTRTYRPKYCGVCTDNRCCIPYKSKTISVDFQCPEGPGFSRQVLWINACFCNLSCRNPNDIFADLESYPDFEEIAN
Experimental Protocol: ELISA screening

- Binder: "WIr2H3 (antibody, V domains shown, Tested as IgG (captured by anti-human Fc); also called Wlr2H3) VH: EVQLVQSGGGMVQPGGSLRLSCAASGFTFSDYYMDWVRQAPGQGLEWVGRIRHKAQGYTTEYAASVKGRFSISRDDSRSSLSLQMNSLKTEDTAVYYCAMVGGSRDWGQGTLVTVSS VL: QAGLTQPPSVSGAPGQRVTISCTGGSSNIGPGYAVHWYQQHPGRAPKLLIYTNNNRPSGVPDRFSGSRSGTSASLAITGLQAEDDAYYYCQSYDSSLSGSVFGGGTKLTVL"
  binding result: "binds"
- Binder: "WIr2B8 (antibody, V domains shown, Fully human IgG; also called Wlr2B8) VH: EVQLVQSGAEVKKPGSSVKVSCKASGGTFSSYAISWVRQAPGQGLEWMGGIIPIFGTANYAQKFQGRVTITADESTSTAYMELSSLRSEDTAVYYCARGQPFRDSSGYYWSYFDYWGQGTLVTVSS VL: SYELTQPPSVSKDLRQTATLTCTGNSNNVGNQGAAWLQQHQGHPPKLLSDRNNNRPSGISERLSASRSENIASLTITGLQPEDEADYFCAAWDTSLNTFLFGGGTKLTVL"
  binding result: "binds"
- Binder: "WIr2A6 (antibody, V domains shown, Fully human IgG; also called Wlr2A6) VH: EVQLVQSGGGLVKPGGSLRLSCEASGFTVSSYYMNWIRQAPGKGLEWISSFTAEGSTYYADSVRGRFSISRDNAKNSLYLEMTRLRADDTAVYYCARDLDRRDWYGGYFDSWGQGTLVTVSS VL: LPVLTQPPSVSGAPGQRLTISCTGSSSNIGAGYGVHWYQHLPGSAPKLLIYGNSNRPSGVTDRISGSKSGTSASLAITGLQTGDEADYYCAAWDSYLSGYVFGTGTKVTVL"
  binding result: "binds"
- Binder: "WI1E6 (antibody, V domains shown, Fully human IgG; also called Wl1E6) VH: EVQLLESGGGVVQPGRSLRLSCAASGFTFSSYGMHWVRQAPGKGLEWVAVIWYDGSNKYYADSVKGRFTISRDNSKNTLYLQMNSLRAEDTAVYYCARGSAFNIWGQGTMVTVSS VL: QAVVTQPASVSGSPGQSITISCIGTSSDVGGYNYVSWYQQHPGKAPKLMIYDVSNRPSGVSNRFSGSKSGNTASLTISGLQAEDEADYYCSSYTTSNTFVFGTGTKVTVL"
  binding result: "binds"
- Binder: "WIr2B9 (antibody, V domains shown, Fully human IgG; also called Wlr2B9) VH: QVQLVQSGAEVKKPGSSVKVSCKASGGTFNNYNINWVRQAPGQGFEWMGRIVPMLGVPKYAQKFQGRVTISADMSTSTAYMELRSLRSDDTAMYYCARGEDLDPWGQGTLVTVS VL: SYELMQPASVSGSPGQSITISCTGTSSDVGGYNYVSWYQQHPGKAPKLMIYDVSKRPSGVSNRFSGSKSGNTASLTISGLQAEDEADYYCSSYTSSSPYVFGTGTKVTVL"
  binding result: "binds"
- Binder: "WI1A5 (antibody, V domains shown, Fully human IgG; also called Wl1A5) VH: QVQLVQSGREMKKPGASMKVSCKASGYTFTKYGISWVRQAPGQGLEWMGWISADNGKTHYAQKLQGRVTMTTDTSTSTAYLELRRLRSDDTAVYFCANDGGYWGQGTLVTVSS VL: QSVLTQPPSVSGAPGQRVTISCTGTSSNLGAGFPVYWYQQLPGKPPKVLIDGNNDRPSGVPDRVSGSKSDTSASLAITGLQAEDEADYYCLSYDSGLDGWVFGGGTKLTVL"
  binding result: "binds"
- Binder: "WIrF8 (antibody, V domains shown, Fully human IgG; also called WlrF8) VH: EVQLLESGAEVKKPGASVKVSCRVPGYSLSELSMHWVRQAPGKGLEWMGGFDPEDGETIYAQKFQGRVTMTEDTSTDTAYMELSSLRSEDTAVYYCAASGGWEVHDAFDTWGQGTMVTVSS VL: DIVMTQSPSSLSASVGDRVTITCRASQDISYYLAWYQQKPGKAPELLIYAGSSLQSGVPSRFSGSESGTDFTLTISSLQPEDVASYYCQQYKTAPYTFGQGTKLEIK"
  binding result: "binds"
- Binder: "WIr2B5 (antibody, V domains shown, Fully human IgG; also called Wlr2B5) VH: EVQLVESGAEVKKPGASVKVSCKASGYTFTSYGISWVRQAPGQGLEWMGWISAYNGNTNYAQKLQGRVTMTTDTSTSTAYMELRSLRSDDTAVYYCARDWDSTSWENYYYGMDVWGQGTTVTVSS VL: DIVMTQTPSSLSASVGDRVTITCQASQDISNYLNWYQQKPGKAPKLLIYDASNLETGVPSRFSGSGSGTDFTFTISSLQPEDIATYYCQQHDNLPLTFGGGTKLEIK"
  binding result: "binds"
- Binder: "WI2D9 (antibody, V domains shown, Fully human IgG; also called Wl2D9) VH: EVQLVQSGAEVKRSGASVKVSCKLSGDTLTDLSIHWVRQAPGKGLEWMGGFDFEDGEIVYGDKFKGRVTVTEDPSTDTAYMDLKRLTFEDTAIYYCATIKDIPGRYYFDFWGQGTLVTVSS VL: QSVVTQPPSVSGAPGQRVTISCTGSSSNIGAGYDVHWYQQLPGTAPKLLIYGNSNRPSGVPDRFSGSKSGTSASLAITGLQAEDEADYYCQSYDSSLSGSNWVFGGGTKLTVL"
  binding result: "binds"
- Binder: "WIr2D9 (antibody, V domains shown, Fully human IgG; also called Wlr2D9) VH: QVQLVQSGAEVKKPGASVKVSCKVSGYTLTELSMHWVRQAPGKGLEWMGGFDPEDGETIYAQKFQGRVTMTEDTSTDTAYMELSSLRSEDTAVYYCATEGWFGELSPVYWGQGTLVTVSS VL: AIQLTQSPSSLSASVGDRVTITCRASQDIRNDLGWYQQKPGRAPQRLIYTTSTLQSGVPSRFSGSGSGTEFTLTISSLQPEDFATYYCLQHNTYPWTFGQGTRLEIK"
  binding result: "binds"

These entries and their values trace back to patent US20170304442A1.
